# ASSAY EXPLANATION: chemical genetic growth profiling, strain panel (AID 1159580);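 further: tested at 20 µM; growth read once vehicle control cultures reached saturation at 30 °C; 1 = growth at the plate median or of vehicle wells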
# CONDITIONS USED: S. cerevisiae deletion strains, growth OD, locus YDR159W, strain sac3
In all, about 5,500 compounds went through this assay and about 2,000 (36%) were called active. Roughly 18% stayed inconclusive and do not appear here. No stated cut-off is given here; in the data, active means normalized growth mostly below about 0.91 (no sharp cut-off); inconclusive means no clear call, values can overlap the other calls; inactive means mostly above about 0.92. Some of the results follow. *1 amine or outer side, *2 acyl side, *3 side chain or, on linkers, in order; H or OH if unused. Where a SMILES comes first, the peptide text is derived from it. Bridges are numbered along the chain shown (N, C = ends). [ ]: non-standard residue; d: D form. The star is where a group is joined. ξ: configuration not given here. ΔAla(E,3-NHCONH2) = NC(=O)N/C=C(/N)C(=O)O; X2 = NC1=NCCC(C(N[*:1])C(=O)[*:2])N1; ξβ3hOrn = NCCCC(N)CC(=O)*; Dap = NC[CH](N)C(=O)O
Please answer using one outcome listed in 1.0 = active, 0.0 = inactive

Some solved entries appear below for comparison.
COMPOUND	LABEL VALUE
CN(C)C(=N)N=C(N)N	0.0
C=C(C)[C@H]1Cc2c(ccc3c2O[C@@H]2COc4cc(OC)c(OC)cc4[C@@H]2C3=O)O1	0.0
COc1c2c(cc3c1OCO3)C13C=C[C@H](OC)CC1N(C2)CC3O (stereo partly drawn)	0.0
NCCCC(N)CC(=O)NCC1NC(=O)C(CO)NC(=O)C(N)CNC(=O)C(C2CCN=C(N)N2)NC(=O)/C(=C\NC(N)=O)NC1=O (stereo not drawn) (H-[Dap]S[Dap](ξβ3hOrn)[ΔAla(E,3-NHCONH2)][X2]; lactam 1-C; configuration not given here)	0.0
COc1c2ccoc2cc2oc(C)cc(=O)c12	0.0

# input Test call, this compound: O=c1[nH]cnc2c1ncn2C1O[C@H](CO)[C@@H](O)[C@H]1O (stereo partly drawn)
# output 0.0

# input Same read-out for C=C(C)[C@@H]1CC[C@]2(CO)CC[C@]3(C)[C@H](CCC4[C@@]5(C)CC[C@H](O)C(C)(C)C5CC[C@]43C)C12 (stereo partly drawn) ?
# output 0.0

# input // same read-out, input: `O=c1oc2c(O)c(O)cc3c(=O)oc4c(O)c(O)cc1c4c23`
# output 1.0

----------
# ASSAY EXPLANATION: chemical genetic growth profiling, strain panel (AID 1159580);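 further: tested at 20 µM; growth read once vehicle control cultures reached saturation at 30 °C; 1 = growth at the plate median or of vehicle wells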
# CONDITIONS USED: S. cerevisiae deletion strains, growth OD, locus YKL160W, strain elf1, stronger effect = lower value
The campaign covered roughly 5,500 compounds. About 2,000 (36%) were called active. Roughly 18% stayed inconclusive and do not appear here. Some of the results follow.
ENDPOINT: normalized growth
Field format: numeric only.

> print(dat)
                                   molecule  experimental.result
1  CO[C@@]1(NC(=O)Cc2cccs2)C(=O)N2C(C(=O)O)=C(COC(N)=O)CS[C@@H]21                0.927
2  CN(C)CCc1c[nH]c2ccc(CS(=O)(=O)N3CCCC3)cc12                 1.03
3          CCOC([O-])=Nc1c[n+](N2CCOCC2)no1                0.984
4                         CN(C)C(=N)N=C(N)N                 1.04

# input Item `CN(C)CCc1c[nH]c2ccc(C[C@H]3COC(=O)N3)cc12` has what recorded normalized growth?
# output 1

# input Next: `CNS(=O)(=O)Cc1ccc2[nH]cc(CCN(C)C)c2c1`
# output 1.02
